Experiment: Compound stability in human liver microsomes
Format: in vitro ADME
Conditions: human liver microsomes 0.5 mg protein/mL, compound 5 μM, NADPH 1.0 mM, pH 7.4, 37° C.; read-out: Human T1/2

| chemical-string | half-life at 5 μM [h] |
| --- | --- |
| Cc1nnc(-c2c(N)ncnc2N[C@@H](C)c2nc3cccc(-c4cnn(C)c4)c3c(=O)n2C2CC2)o1 | 1.58 |
| C[C@H](Nc1ncnc(N)c1-c1nnn(C)n1)c1nc2cccc(-c3cnn(C)c3)c2c(=O)n1-c1ccccc1 | 4.49 |
| Cc1nc(-c2c(N)ncnc2N[C@@H](C)c2nc3cccc(-c4cnn(C)c4)c3c(=O)n2C2CC2)no1 | 1.07 |
| CC[C@H](Nc1ncnc(N)c1-c1noc(C)n1)c1nc2cccc(-c3cnn(C)c3)c2c(=O)n1C1CC1 | 0.821 |
| CC[C@H](Nc1ncnc(N)c1-c1nnn(C)n1)c1nc2cccc(-c3cnn(C)c3)c2c(=O)n1C1CC1 | 1 |
| Cc1noc(-c2c(N)ncnc2N[C@@H](C)c2nc3cccc(-c4cnn(C)c4)c3c(=O)n2C2CC2)n1 | 1.11 |
| Cc1noc(-c2c(N)ncnc2N[C@@H](C)c2nc3cccc(-c4cnn(C)c4)c3c(=O)n2-c2ccccc2)n1 | 1.22 |
| Cc1nnc(-c2c(N)ncnc2N[C@@H](C)c2nc3cccc(-c4cnn(C)c4)c3c(=O)n2-c2ccccc2)o1 | 2.31 |
| Cc1nnc(-c2c(N)ncnc2N[C@@H](C)c2nc3cccc(Cl)c3c(=O)n2C2CC2)o1 | 1.1 |
| Cc1nc(-c2c(N)ncnc2N[C@@H](C)c2nc3cccc(-c4cnn(C)c4)c3c(=O)n2-c2ccccc2)no1 | 1.36 |
